Source listed as patent US11608337B2.

# subject-of-test: PD-1/PD-L1 protein/protein interaction (Homo sapiens (Human), UniProt Q9NZQ7)
# Sequence (Q9NZQ7 19-238): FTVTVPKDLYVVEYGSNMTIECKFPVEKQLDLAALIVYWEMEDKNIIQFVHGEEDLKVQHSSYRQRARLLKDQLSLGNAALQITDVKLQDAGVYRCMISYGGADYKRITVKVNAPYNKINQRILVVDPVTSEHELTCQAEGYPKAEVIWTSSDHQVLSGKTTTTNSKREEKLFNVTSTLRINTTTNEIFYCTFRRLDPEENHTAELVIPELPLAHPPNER
# assay-comment: PD-1/PD-L1 Homogeneous Time-Resolved Fluorescence (HTRF) Binding Assay
# condition-description: recombinant human PD-L1 (19-238) His-tag, human PD-1 (25-167) Fc tag; 25° C., PBS pH 7.4
# Protocol: Example A. PD-1/PD-L1 Homogeneous Time-Resolved Fluorescence (HTRF) Binding Assay The assays were conducted in a standard black 384-well polystyrene plate with a final volume of 20 μL. […] After centrifugation, the plate was incubated at 25° C. for 60 min. before reading on a PHERAstar FS plate reader (665 nm/620 nm ratio). […] Data obtained for the Example compounds using the PD-1/PD-L homogenous time-resolved fluorescence (HTRF) binding assay described in Example A is provided in Table 1.
pIC50: −log10 of the molar value.
Assignment: determine reported pIC50 for the given compounds.

[ask] Form: Entry = Cc1c(-c2ccsc2)cccc1-c1nc2c(s1)CNCC2 [Example 27] | System = PD-1/PD-L1 protein/protein interaction (Homo sapiens (Human), UniProt Q9NZQ7) | pIC50 = ____
[reply] 6.30 to 7.00

[ask] Form: Entry = Cc1c(-c2ccc3c(c2)OCCO3)ccnc1-c1nc2c(s1)CNCC2 [Example 16] | System = PD-1/PD-L1 protein/protein interaction (Homo sapiens (Human), UniProt Q9NZQ7) | pIC50 = ____
[reply] ≥ 7.00

[ask] Form: Entry = CCOc1cccc(-c2cccc(-c3nc4c(s3)CNCC4)c2C)c1 [Example 33] | System = PD-1/PD-L1 protein/protein interaction (Homo sapiens (Human), UniProt Q9NZQ7) | pIC50 = ____
[reply] ≥ 7.00

[ask] Form: Entry = COc1cc(-c2cccc(-c3nc4c(s3)CNCC4)c2C)ccn1 [Example 30] | System = PD-1/PD-L1 protein/protein interaction (Homo sapiens (Human), UniProt Q9NZQ7) | pIC50 = ____
[reply] 6.30 to 7.00

[ask] Form: Entry = N#Cc1c(-c2ccc3c(c2)OCCO3)cccc1-c1nc2c(s1)CNCC2 [Example 13] | System = PD-1/PD-L1 protein/protein interaction (Homo sapiens (Human), UniProt Q9NZQ7) | pIC50 = ____
[reply] ≥ 7.00

[ask] Form: Entry = COc1cc(OC)cc(-c2cccc(-c3nc4c(s3)CNCC4)c2C)c1 [Example 34] | System = PD-1/PD-L1 protein/protein interaction (Homo sapiens (Human), UniProt Q9NZQ7) | pIC50 = ____
[reply] ≥ 7.00

[ask] Form: Entry = Cc1c(-c2cccc(CC(N)=O)c2)cccc1-c1nc2c(s1)CNCC2 [Example 39] | System = PD-1/PD-L1 protein/protein interaction (Homo sapiens (Human), UniProt Q9NZQ7) | pIC50 = ____
[reply] ≥ 7.00

[ask] Form: Entry = Cc1c(-c2ccccc2)cccc1-n1cc2c(n1)CCNC2 [Example 17] | System = PD-1/PD-L1 protein/protein interaction (Homo sapiens (Human), UniProt Q9NZQ7) | pIC50 = ____
[reply] 6.30 to 7.00

[ask] Form: Entry = COc1cc(OC)c(F)c(-c2cccc(-c3nc4c(s3)CNCC4)c2C)c1F [Example 37] | System = PD-1/PD-L1 protein/protein interaction (Homo sapiens (Human), UniProt Q9NZQ7) | pIC50 = ____
[reply] ≥ 7.00

[ask] Form: Entry = Cc1c(-c2ccccc2)cccc1-c1nc2c(s1)CN(Cc1cn[nH]c1)CC2 [Example 10] | System = PD-1/PD-L1 protein/protein interaction (Homo sapiens (Human), UniProt Q9NZQ7) | pIC50 = ____
[reply] 6.30 to 7.00

[ask] Form: Entry = Cc1c(C2=CCOCC2)cccc1-c1nc2c(s1)CNCC2 [Example 29] | System = PD-1/PD-L1 protein/protein interaction (Homo sapiens (Human), UniProt Q9NZQ7) | pIC50 = ____
[reply] 5.00 to 6.30

[ask] Form: Entry = Cc1c(C2=CCCCC2)cccc1-c1nc2c(s1)CNCC2 [Example 32] | System = PD-1/PD-L1 protein/protein interaction (Homo sapiens (Human), UniProt Q9NZQ7) | pIC50 = ____
[reply] ≥ 7.00

[ask] Form: Entry = Cc1c(-c2ccccc2)cccc1-c1cn2c(n1)CNCC2 [Example 20] | System = PD-1/PD-L1 protein/protein interaction (Homo sapiens (Human), UniProt Q9NZQ7) | pIC50 = ____
[reply] 5.00 to 6.30

[ask] Form: Entry = Cc1c(-c2ccc(F)cn2)cccc1-c1nc2c(s1)CNCC2 [Example 31] | System = PD-1/PD-L1 protein/protein interaction (Homo sapiens (Human), UniProt Q9NZQ7) | pIC50 = ____
[reply] 5.00 to 6.30

[ask] Form: Entry = Cc1c(-c2ccccc2)cccc1-c1nc2n(n1)CCNC2 [Example 25] | System = PD-1/PD-L1 protein/protein interaction (Homo sapiens (Human), UniProt Q9NZQ7) | pIC50 = ____
[reply] 6.30 to 7.00

[ask] Form: Entry = Cc1c(-c2ccccc2)cccc1-c1nc2c([nH]1)CCNC2 [Example 21] | System = PD-1/PD-L1 protein/protein interaction (Homo sapiens (Human), UniProt Q9NZQ7) | pIC50 = ____
[reply] 5.00 to 6.30
